Reference source: patent US8476265B2

Target: human muscarinic acetylcholine M3 receptor (Homo sapiens)
Construct: expressed in transfected cells; host or cells: CHO-K1 (Chinese Hamster Ovary) cell membranes
Sequence (P20309 whole entry): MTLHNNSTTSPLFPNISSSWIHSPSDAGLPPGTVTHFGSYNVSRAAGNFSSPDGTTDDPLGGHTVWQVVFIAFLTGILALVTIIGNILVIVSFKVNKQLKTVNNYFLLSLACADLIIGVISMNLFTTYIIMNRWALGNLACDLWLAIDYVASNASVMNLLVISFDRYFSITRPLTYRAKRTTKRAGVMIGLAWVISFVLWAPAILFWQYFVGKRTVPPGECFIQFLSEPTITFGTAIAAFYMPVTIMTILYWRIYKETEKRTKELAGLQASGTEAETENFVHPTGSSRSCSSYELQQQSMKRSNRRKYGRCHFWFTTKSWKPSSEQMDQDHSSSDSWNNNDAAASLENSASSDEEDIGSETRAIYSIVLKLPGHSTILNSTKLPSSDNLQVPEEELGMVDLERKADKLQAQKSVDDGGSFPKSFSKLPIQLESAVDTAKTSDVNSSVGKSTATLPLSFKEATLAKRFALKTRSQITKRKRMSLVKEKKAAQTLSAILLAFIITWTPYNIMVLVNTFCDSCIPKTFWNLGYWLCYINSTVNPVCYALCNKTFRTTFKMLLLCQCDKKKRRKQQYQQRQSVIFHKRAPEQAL
Experiment: Muscarinic 3 receptor binding assay ([3H]NMS competition, SPA), single concentration 1 μM
Conditions: 1 μM compound; % inhibition specific [3H]-NMS binding
OBSERVED_PROPERTY: inhibition at 1 µM (%)
Numbers only here, please. The scale is %.

Study these solved cases before continuing.
O=C1COc2c(CCNCCN(C(=O)CCOCCc3cccc(CN4CCC5(CC4)CN(C(=O)c4ccc(-n6cccn6)nc4)CCO5)c3)C3CCCCC3)ccc(O)c2N1 ... 98
O=C1COc2c(CCNCCN(C(=O)CCOCCc3cccc(CN4CCC5(CC4)CN(C(=O)c4cccc(F)c4F)CCO5)c3)C3CCCCC3)ccc(O)c2N1 ... 100
Cc1ccccc1C(=O)N1CCOC2(CCN(Cc3cccc(CCOCCC(=O)N(CCNCCc4ccc(O)c5c4OCC(=O)N5)C4CCCCC4)c3)CC2)C1 ... 98

Tell me its inhibition at 1 µM given `Cc1ccn2cc(C(=O)N3CCOC4(CCN(Cc5cccc(CCOCCC(=O)N(CCNCCc6ccc(O)c7c6OCC(=O)N7)C6CCCCC6)c5)CC4)C3)nc2c1` as the entry.
99

Tell me its inhibition at 1 µM given `O=C1COc2c(CCNCCN(C(=O)CCOCCc3cccc(CN4CCC5(CC4)CN(C(=O)c4cnccc4C(F)(F)F)CCO5)c3)C3CCCCC3)ccc(O)c2N1` as the entry.
88

Tell me its inhibition at 1 µM given `O=C1COc2c(CCNCCN(C(=O)CCOCCc3cccc(CN4CCC5(CC4)CN(C(=O)[C@@H](O)Cc4ccccc4)CCO5)c3)C3CCCCC3)ccc(O)c2N1` as the entry.
97
